- TARGET_OF_ASSAY: Porcine cholesterol esterase (Sus scrofa)
- Sequence (A0A286ZKB1 1-682): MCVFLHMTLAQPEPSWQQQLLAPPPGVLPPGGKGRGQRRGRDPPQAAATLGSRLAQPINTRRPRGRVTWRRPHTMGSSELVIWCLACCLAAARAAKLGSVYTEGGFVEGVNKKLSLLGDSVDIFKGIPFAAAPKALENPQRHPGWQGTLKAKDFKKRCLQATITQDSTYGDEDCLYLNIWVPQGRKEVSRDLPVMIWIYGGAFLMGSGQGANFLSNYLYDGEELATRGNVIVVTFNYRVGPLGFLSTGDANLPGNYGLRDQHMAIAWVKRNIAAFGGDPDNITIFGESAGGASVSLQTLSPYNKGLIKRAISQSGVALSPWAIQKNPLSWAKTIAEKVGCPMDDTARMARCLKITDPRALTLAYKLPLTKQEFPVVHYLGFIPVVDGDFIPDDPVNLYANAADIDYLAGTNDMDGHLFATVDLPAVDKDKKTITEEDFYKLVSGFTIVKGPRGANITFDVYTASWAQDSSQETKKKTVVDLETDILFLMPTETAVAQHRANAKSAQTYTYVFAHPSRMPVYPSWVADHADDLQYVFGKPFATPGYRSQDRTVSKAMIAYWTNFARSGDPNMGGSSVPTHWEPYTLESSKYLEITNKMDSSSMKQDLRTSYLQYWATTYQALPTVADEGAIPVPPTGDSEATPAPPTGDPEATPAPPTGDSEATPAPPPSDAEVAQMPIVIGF
MEASUREMENT_LABEL: IC50 (µM)
One number for each entry, in µM.

The reported IC50 of the molecule CC(C)c1c(C(=O)Nc2ccccc2)c(-c2ccccc2)c(-c2ccc(F)cc2)n1CC[C@@H](O)C[C@@H](O)CC(=O)O [Atorvastatin, reference compound] was 854
